Give Fibril for every item shown.
- Assay type: physicochemical
- Design: key: 1 = fibrils present; 0 non-fibrillar structures
- MEASUREMENT_PARAMETERS: TEM; 1 = fibrils present, 0 = non-fibrillar
Numbers only.

Before answering, review these 3 worked examples.
> print(dat)
         substance  readout.type  reported
1        CKFKFQFNM        Fibril         1
2          CQFQFQF        Fibril         1
3  MDQMDQMDQMDQMDQ        Fibril         0

For every record below, what is its Fibril?
1. NMWQKFKFQF
2. KIKIQI
3. QCKIKQIINMWQ [reference compound]
4. CKFKQFF
5. RGDKIKIQIC

[1, 0, 1, 0, 1]

* * *

- Assay type: physicochemical
- Set-up: key: 1 = fibrils present; 0 non-fibrillar structures
- MEASUREMENT_PARAMETERS: TEM; 1 = fibrils present, 0 = non-fibrillar structures
READOUT_TYPE: Fibril
One number for each entry.

Before answering, review these 5 worked examples.
> print(dat)
    substance  reported
1  CKIKQIIRGD         0
2     RLRLTLC         1
3      EFEFQF         0
4  KFKQFFNMWQ         0
5  RGDKIKIQIC         1

For every record below, what is its Fibril?
1. KAKAQA
2. KIKQIINMWQ

[0, 1]

For every record below, what is its Fibril?
1. PPFHPPPFHP
2. HGEHGEHGE
3. CKFKFQFW

[0, 0, 1]

// Fibril lookup, key: `KIKIKIQI` 1

* * *

Give Log10 Count Rate for every item shown.
- METHOD_NOTES: Turbidity, derived count rate of scattered light
- Format: physicochemical
- MEASUREMENT_PARAMETERS: turbidity, log10 of derived count rate of scattered light
Give bare numbers.

Before answering, review these 5 worked examples.
> print(dat)
    substance      readout.type  reported
1  QCKIKQIINM  Log10 Count Rate     4.313
2  QCKFKQFFNM  Log10 Count Rate     4.016
3    KFKFQFNM  Log10 Count Rate      2.12
4   CKIKIQIII  Log10 Count Rate     3.695
5  KIKIQINMWA  Log10 Count Rate     3.042

For every record below, what is its Log10 Count Rate?
1. RPRGLLLGNLR
2. KNDKND
3. QCKIKQIINMWQ [reference compound]
4. FDPFDPFDP
5. CKIKQIINM

1: 2.322; 2: 1.719; 3: 3.415; 4: 2.412; 5: 3.957

For every record below, what is its Log10 Count Rate?
1. CEIEIQI
2. CKAKAQANMWQ
3. HGEHGEHGE
4. KIRGKFEKED
5. FKFDKFKFDK
6. KFKFQFNMWQ
7. KFKFQFNMW
8. KYKGAIIGNIK

1. 1.716
2. 0.9526
3. 2.532
4. 2.331
5. 1.6545
6. 2.866
7. 2.785
8. 1.644

For every record below, what is its Log10 Count Rate?
1. QCKFKFQFNMWQ
2. HGEHGE

3.082
2.381

Entry source: paper PMC10447463
